# targetOrTestSystem: hAR (Homo sapiens)
# Construct: expressed in transfected cells; host or cells: CV-1 cells (African green monkey kidney fibroblasts)
# assaySummary: co-transfection assay, AR agonist, CV-1 cells
# Assay type: cell-based
# protocolConditions: AR Agonist CV-1 Cells Potency (nM)
endpointName: EC50
# number then unit; no other words

For the compound COCC1COc2cc3[nH]c(=O)cc(C(F)(F)F)c3cc2N1CC(F)(F)F (racemic) , the measured EC50 on hAR (Homo sapiens) was 1.7 nM

----------
# targetOrTestSystem: hAR (Homo sapiens, UniProt P10275)
# Construct: expressed in transfected cells; host or cells: CV-1 cells (African green monkey kidney fibroblasts)
# Sequence (P10275 1-920): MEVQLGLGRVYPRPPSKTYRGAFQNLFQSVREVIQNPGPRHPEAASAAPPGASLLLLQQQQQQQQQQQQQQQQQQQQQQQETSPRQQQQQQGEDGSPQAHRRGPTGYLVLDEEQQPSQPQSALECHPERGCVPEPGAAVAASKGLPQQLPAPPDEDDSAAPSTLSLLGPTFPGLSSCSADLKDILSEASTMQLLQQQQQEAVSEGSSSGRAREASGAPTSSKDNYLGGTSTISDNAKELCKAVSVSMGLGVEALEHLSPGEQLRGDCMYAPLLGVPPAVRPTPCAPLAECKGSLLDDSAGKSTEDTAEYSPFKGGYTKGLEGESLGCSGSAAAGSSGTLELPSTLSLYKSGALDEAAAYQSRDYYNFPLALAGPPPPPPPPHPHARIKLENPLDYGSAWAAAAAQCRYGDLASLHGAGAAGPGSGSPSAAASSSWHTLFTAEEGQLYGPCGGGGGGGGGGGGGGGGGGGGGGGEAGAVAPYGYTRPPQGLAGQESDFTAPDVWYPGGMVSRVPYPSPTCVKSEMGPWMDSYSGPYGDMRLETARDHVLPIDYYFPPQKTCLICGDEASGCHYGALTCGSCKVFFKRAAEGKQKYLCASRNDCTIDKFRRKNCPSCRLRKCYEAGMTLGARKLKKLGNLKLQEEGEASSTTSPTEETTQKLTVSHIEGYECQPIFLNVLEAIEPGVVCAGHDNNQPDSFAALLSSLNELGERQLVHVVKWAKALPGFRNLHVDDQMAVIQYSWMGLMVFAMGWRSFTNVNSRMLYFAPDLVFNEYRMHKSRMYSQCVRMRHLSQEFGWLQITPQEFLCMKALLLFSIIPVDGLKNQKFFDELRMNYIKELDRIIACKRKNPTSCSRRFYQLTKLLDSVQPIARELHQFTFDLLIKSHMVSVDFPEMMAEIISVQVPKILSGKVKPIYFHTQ
# assaySummary: co-transfection assay, AR agonist, CV-1 cells
# Format: cell-based
# protocolConditions: hAR in CV-1 cells; relative to maximum LUC production by reference agonist
Kindly supply the reported AR Agonist CV-1 Cells Efficacy (%) values for the records listed here.
The reply should contain only the number, in %.

The value of AR Agonist CV-1 Cells Efficacy (%) measured for the molecule FC(F)(F)CN1CCOc2cc3[nH]c(=S)cc(C(F)(F)F)c3cc21 [Compound 110] turned out to be 90

The value of AR Agonist CV-1 Cells Efficacy (%) measured for the molecule O=c1[nH]c2cc3c(cc2c(C(F)(F)F)c1Cl)N(CC(F)(F)F)CCO3 [Compound 107] turned out to be 92

The value of AR Agonist CV-1 Cells Efficacy (%) measured for the molecule CC(=O)OCC1COc2cc3[nH]c(=O)cc(C(F)(F)F)c3cc2N1CC(F)(F)F (racemic) [Compound 131] turned out to be 46

The value of AR Agonist CV-1 Cells Efficacy (%) measured for the molecule CCC1COc2cc3[nH]c(=O)cc(C(F)(F)F)c3cc2N1CC(F)(F)F (racemic) [Compound 145] turned out to be 69

The value of AR Agonist CV-1 Cells Efficacy (%) measured for the molecule CC[C@H]1Oc2cc3[nH]c(=O)cc(C(F)(F)F)c3cc2N(CC(F)(F)F)[C@H]1C (racemic) [Compound 129] turned out to be 42

----------
# targetOrTestSystem: hAR (Homo sapiens, UniProt P10275)
# Construct: expressed in transfected cells; host or cells: CV-1 cells (African green monkey kidney fibroblasts)
# assaySummary: co-transfection assay, AR agonist, CV-1 cells
# Type: cell-based
# protocolConditions: AR Potency Agon (nM), Table 2
endpointName: EC50 (nM)
The reply should contain only the number, in nM.

The value of EC50 measured for the molecule CC1COc2cc3[nH]c(=O)cc(C(F)(F)F)c3cc2N1CC(F)(F)F (racemic) [Compound 123] turned out to be 3.4

----------
# targetOrTestSystem: ER (Homo sapiens, UniProt P03372)
# Construct: expressed in transfected cells; host or cells: CV-1 cells
# Sequence (P03372 whole entry): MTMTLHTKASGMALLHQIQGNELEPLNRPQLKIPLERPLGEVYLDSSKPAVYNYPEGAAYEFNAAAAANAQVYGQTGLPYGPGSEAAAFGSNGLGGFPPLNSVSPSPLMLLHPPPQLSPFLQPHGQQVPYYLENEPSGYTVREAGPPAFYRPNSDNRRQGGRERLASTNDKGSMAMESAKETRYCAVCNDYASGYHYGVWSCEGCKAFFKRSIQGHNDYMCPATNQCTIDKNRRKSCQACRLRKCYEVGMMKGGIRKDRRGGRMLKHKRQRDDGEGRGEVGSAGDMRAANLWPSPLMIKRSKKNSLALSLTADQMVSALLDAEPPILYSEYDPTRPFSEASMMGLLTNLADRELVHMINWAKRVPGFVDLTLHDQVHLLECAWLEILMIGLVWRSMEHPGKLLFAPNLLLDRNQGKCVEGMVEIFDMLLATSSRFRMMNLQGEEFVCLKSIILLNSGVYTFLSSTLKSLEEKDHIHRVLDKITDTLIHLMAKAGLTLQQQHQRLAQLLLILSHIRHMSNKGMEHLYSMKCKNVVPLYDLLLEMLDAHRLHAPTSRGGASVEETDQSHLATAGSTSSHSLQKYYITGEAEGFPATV
# assaySummary: co-transfection assay, ER agonist
# Type: cell-based
# protocolConditions: Table 2; read-out: ER Potency Agon
endpointName: EC50

The value of EC50 measured for the molecule CC(C)(O)C(=O)Nc1ccc([N+](=O)[O-])c(C(F)(F)F)c1 [Flut, 2-hydroxyflutamide, reference compound] turned out to be > 10 µM

----------
# targetOrTestSystem: hAR (Homo sapiens)
# Construct: expressed in transfected cells; host or cells: CV-1 cells (African green monkey kidney fibroblasts)
# assaySummary: co-transfection assay, AR antagonist (in presence of DHT), CV-1 cells
# Type: cell-based
endpointName: pIC50
Note: pIC50 values are expressed as the negative base-10 logarithm of concentration in M.

The value of pIC50 measured for the compound O=C1COc2cc3[nH]c(=O)cc(C(F)(F)F)c3cc2N1CC(F)(F)F turned out to be 7.74

The value of pIC50 measured for the compound CC[C@H]1Oc2cc3[nH]c(=O)cc(C(F)(F)F)c3cc2N(CC(F)(F)F)[C@H]1C (racemic) turned out to be 7.89

The value of pIC50 measured for the compound CC(C)CN1CCOc2cc3c(cc21)c(C(F)(F)F)cc(=O)n3C turned out to be 7.21

The value of pIC50 measured for the compound CN1CCOc2cc3c(cc21)c(C(F)(F)F)cc(=O)n3C turned out to be 7.66

----------
# targetOrTestSystem: MR (Homo sapiens, UniProt P08235)
# Construct: expressed in transfected cells; host or cells: CV-1 cells
# Sequence (P08235 whole entry): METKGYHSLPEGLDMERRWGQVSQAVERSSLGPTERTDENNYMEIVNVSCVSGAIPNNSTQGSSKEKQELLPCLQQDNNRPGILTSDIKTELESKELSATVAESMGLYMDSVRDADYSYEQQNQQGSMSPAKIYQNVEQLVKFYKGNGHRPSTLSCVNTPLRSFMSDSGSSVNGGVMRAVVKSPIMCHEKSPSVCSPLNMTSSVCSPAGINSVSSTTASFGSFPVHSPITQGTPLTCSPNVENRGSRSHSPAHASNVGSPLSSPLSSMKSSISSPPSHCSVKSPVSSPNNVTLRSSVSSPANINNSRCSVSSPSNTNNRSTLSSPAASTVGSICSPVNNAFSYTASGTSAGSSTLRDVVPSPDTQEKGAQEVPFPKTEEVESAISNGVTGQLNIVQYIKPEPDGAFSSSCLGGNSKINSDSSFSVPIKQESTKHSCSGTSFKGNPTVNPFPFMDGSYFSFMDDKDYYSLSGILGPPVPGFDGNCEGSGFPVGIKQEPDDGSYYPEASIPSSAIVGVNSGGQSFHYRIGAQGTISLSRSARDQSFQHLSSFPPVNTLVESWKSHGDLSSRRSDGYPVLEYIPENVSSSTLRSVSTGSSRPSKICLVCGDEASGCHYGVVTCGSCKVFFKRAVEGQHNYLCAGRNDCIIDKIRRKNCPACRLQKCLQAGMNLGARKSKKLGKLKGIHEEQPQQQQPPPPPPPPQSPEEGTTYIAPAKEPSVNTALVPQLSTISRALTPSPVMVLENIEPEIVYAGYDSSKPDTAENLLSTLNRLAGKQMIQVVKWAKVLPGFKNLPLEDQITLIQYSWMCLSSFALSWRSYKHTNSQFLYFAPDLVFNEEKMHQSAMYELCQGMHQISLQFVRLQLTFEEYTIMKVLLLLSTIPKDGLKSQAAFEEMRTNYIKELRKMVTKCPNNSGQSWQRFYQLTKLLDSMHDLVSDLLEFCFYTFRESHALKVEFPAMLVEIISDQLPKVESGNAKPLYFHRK
# assaySummary: co-transfection assay, MR antagonist
# Format: cell-based
pIC50: −log10 of the molar value.
Kindly supply the reported pIC50 values for the records listed here.

The value of pIC50 measured for the compound CN1CCOc2cc3c(cc21)c(C(F)(F)F)cc(=O)n3C turned out to be < 5.00

The value of pIC50 measured for the compound CN1CCOc2cc3[nH]c(=O)cc(C(F)(F)F)c3cc21 turned out to be < 5.00

The value of pIC50 measured for the compound O=C1COc2cc3[nH]c(=O)cc(C(F)(F)F)c3cc2N1CC(F)(F)F turned out to be < 5.00

The value of pIC50 measured for the compound CCN1CCOc2cc3[nH]c(=O)cc(C(F)(F)F)c3cc21 turned out to be < 5.00

The value of pIC50 measured for the compound C[C@]1(O)CC[C@H]2[C@@H]3CCC4=CC(=O)CC[C@]4(C)[C@@]3(F)[C@@H](O)C[C@@]21C turned out to be 6.71

The value of pIC50 measured for the compound O=c1cc(C(F)(F)F)c2cc3c(cc2[nH]1)OCCN3CC1CC1 turned out to be 5.59

The value of pIC50 measured for the compound CCN1CCOc2cc3c(cc21)c(C(F)(F)F)cc(=O)n3C turned out to be 5.74

The value of pIC50 measured for the compound O=c1cc(C(F)(F)F)c2cc3c(cc2[nH]1)OCCN3CC(F)(F)F turned out to be < 5.00

The value of pIC50 measured for the compound CC1CN(CC(F)(F)F)c2cc3c(C(F)(F)F)cc(=O)[nH]c3cc2O1 (racemic) turned out to be < 5.00

----------
# targetOrTestSystem: PR (Homo sapiens, UniProt P06401)
# Construct: expressed in transfected cells; host or cells: CV-1 cells
# Sequence (P06401 whole entry): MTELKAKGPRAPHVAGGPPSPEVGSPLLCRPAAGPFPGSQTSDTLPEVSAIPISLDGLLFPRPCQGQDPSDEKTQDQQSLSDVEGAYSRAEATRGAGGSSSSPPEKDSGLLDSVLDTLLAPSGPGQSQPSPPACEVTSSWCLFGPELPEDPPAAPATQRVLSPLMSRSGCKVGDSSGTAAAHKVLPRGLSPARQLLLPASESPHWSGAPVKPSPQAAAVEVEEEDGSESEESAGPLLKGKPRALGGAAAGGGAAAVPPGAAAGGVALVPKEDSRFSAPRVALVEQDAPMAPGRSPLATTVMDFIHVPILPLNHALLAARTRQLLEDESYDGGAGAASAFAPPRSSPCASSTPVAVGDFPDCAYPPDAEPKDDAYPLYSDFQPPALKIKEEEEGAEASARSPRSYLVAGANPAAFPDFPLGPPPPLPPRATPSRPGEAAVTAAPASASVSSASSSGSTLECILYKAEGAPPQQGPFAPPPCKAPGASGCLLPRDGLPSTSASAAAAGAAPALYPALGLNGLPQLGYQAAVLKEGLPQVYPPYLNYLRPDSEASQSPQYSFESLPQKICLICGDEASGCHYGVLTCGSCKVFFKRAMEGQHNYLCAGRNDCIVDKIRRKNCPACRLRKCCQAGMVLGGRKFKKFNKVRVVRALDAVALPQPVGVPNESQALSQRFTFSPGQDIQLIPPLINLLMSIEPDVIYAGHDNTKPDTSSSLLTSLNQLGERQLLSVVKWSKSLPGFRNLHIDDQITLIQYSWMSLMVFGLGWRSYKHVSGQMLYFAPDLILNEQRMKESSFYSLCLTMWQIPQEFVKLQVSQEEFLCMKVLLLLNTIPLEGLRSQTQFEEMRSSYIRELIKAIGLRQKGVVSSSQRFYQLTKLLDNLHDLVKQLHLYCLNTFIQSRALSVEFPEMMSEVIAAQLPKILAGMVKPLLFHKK
# assaySummary: co-transfection assay, PR antagonist (in presence of progesterone)
# Type: cell-based
pIC50: −log10 of the molar value.
Lab note: anything with pIC50 at or over 6 counts as Condition met; the rest go in Condition not met.

Does the reported pIC50 for O=c1cc(C(F)(F)F)c2cc3c(cc2[nH]1)OCCN3CC(F)(F)F [Compound 105] fall at or above the 6 mark?
Condition not met

Does the reported pIC50 for CC1COc2cc3[nH]c(=O)cc(C(F)(F)F)c3cc2N1CC(F)(F)F (racemic) [Compound 123] fall at or above the 6 mark?
Condition not met

Does the reported pIC50 for C[C@]1(O)CC[C@H]2[C@@H]3CCC4=CC(=O)CC[C@]4(C)[C@@]3(F)[C@@H](O)C[C@@]21C [Fluox, fluoxymesterone] fall at or above the 6 mark?
Condition met

Does the reported pIC50 for CN1CCOc2cc3[nH]c(=O)cc(C(F)(F)F)c3cc21 [Compound 101] fall at or above the 6 mark?
Condition not met

Does the reported pIC50 for O=C1COc2cc3[nH]c(=O)cc(C(F)(F)F)c3cc2N1CC(F)(F)F [Compound 137] fall at or above the 6 mark?
Condition not met

Does the reported pIC50 for O=c1cc(C(F)(F)F)c2cc3c(cc2[nH]1)OCCN3CC1CC1 [Compound 121] fall at or above the 6 mark?
Condition met

Does the reported pIC50 for CCN1CCOc2cc3c(cc21)c(C(F)(F)F)cc(=O)n3C [Compound 104] fall at or above the 6 mark?
Condition not met

Does the reported pIC50 for CCN1CCOc2cc3[nH]c(=O)cc(C(F)(F)F)c3cc21 [Compound 103] fall at or above the 6 mark?
Condition not met

Does the reported pIC50 for CN1CCOc2cc3c(cc21)c(C(F)(F)F)cc(=O)n3C [Compound 102] fall at or above the 6 mark?
Condition not met

Does the reported pIC50 for CC1CN(CC(F)(F)F)c2cc3c(C(F)(F)F)cc(=O)[nH]c3cc2O1 (racemic) [Compound 114] fall at or above the 6 mark?
Condition not met
